# Tested on: leukotriene pathway in human whole blood (LTB4 levels)
# experimental-details: Human whole blood assay (LTB4)
# Assay type: cell-based
# reported-conditions: human whole blood diluted 1:1 in RPMI, stimulated with calcium ionophore A23187; single replicate
For each record, write down the corresponding log10 of IC50.
log10 IC50, nM

- molecule: "Cc1csc2ncnc(Oc3c(C4CCC4)ccc(-c4cnc(N)cn4)c3F)c12"
  log10 of IC50: 1.11

// for each molecule below, give its log10 of IC50
1. NC(=O)c1ccccc1COc1c(C2CCC2)ccc(-c2cnc(N)cn2)c1F
2. Nc1cnc(-c2ccc(C3CCC3)c(Oc3ccnc(Cl)n3)c2F)cn1
3. Nc1cnc(-c2ccc(C3CCC3)c(Oc3ccc(C(F)(F)F)nn3)c2F)cn1
4. Nc1cnc(-c2ccc(C3CCC3)c(OCC(O)Cn3cnccc3=O)c2F)cn1 (racemic)
5. Nc1cnc(-c2ccc(C3CCC3)c(OCc3cc(S(F)(F)(F)(F)F)ccc3F)c2F)cn1
6. N#Cc1ccc(COc2c(C3CCC3)ccc(-c3cnc4c(c3)OCCN4)c2F)cc1
7. Nc1cnc(-c2ccc(C3CCC3)c(OCCN3CCOCC3)c2F)cn1

Solution:
[2.91, 1.71, 2.58, 2.83, 3.14, 3.03, 3.26]

Here are 7 molecules. What values of log10 of IC50 were reported for them?
1. COCc1cc(Oc2c(C3CCC3)ccc(-c3cnc(N)nc3)c2F)nc(N)n1
2. COc1cc(Oc2c(C3CCC3)ccc(-c3cnc4c(c3)OCCN4)c2F)ncn1
3. NC(=O)c1ccc(Oc2c(C3CCC3)ccc(-c3cnc(N)cn3)c2F)cc1
4. COc1c(C2CCC2)ccc(-c2cnc(N)cn2)c1F
5. N#Cc1nc(N)cnc1-c1ccc(C2CCC2)c(OCc2cccc(C(=O)O)c2)c1F
6. Nc1ccc(-c2ccc(C3CCC3)c(OCc3ccc(C(=O)O)cc3)c2F)cn1
7. Nc1cnc(-c2ccc(C3CCC3)c(OCC(O)CN3CCOCC3)c2F)cn1 (racemic)

Solution:
[2.09, 2.52, 2.23, 2.73, 3.08, 4.00, 3.06]

List reported log10 of IC50 for each of these molecules:
1. N#CCOc1c(C2CCC2)ccc(-c2cnc(N)cn2)c1F
2. N#Cc1nc(-c2ccc(C3CCC3)c(O)c2F)cnc1N
3. Oc1c(C2CCC2)ccc(-c2cnc3c(c2)CCN3)c1F

Solution:
[2.61, 3.54, 3.03]

Record log10 of IC50 per entry; entries follow.
1. CS(=O)(=O)c1ccc(Oc2c(C3CCC3)ccc(-c3cnc(N)cn3)c2F)c(C#N)c1
2. COC(=O)c1ccc(O)c(NC(=O)COc2c(C3CCC3)ccc(-c3cnc(N)cn3)c2F)c1 [Example 275]
3. Nc1cnc(-c2ccc(C3CCC3)c(Oc3ccncn3)c2F)cn1
4. CNS(=O)(=O)c1ccc(COc2c(C3CCC3)ccc(-c3cnc(N)cn3)c2F)cc1
5. Nc1cnc(-c2ccc(C3CCC3)c(Oc3nc(N)c4ccccc4n3)c2F)cn1
6. COc1cnc(Oc2c(C3CCC3)ccc(-c3cnc(N)cn3)c2F)nc1

Solution:
1: 2.12; 2: 3.29; 3: 2.29; 4: 2.91; 5: 1.62; 6: 2.00

Items follow; give log10 of IC50 for each.
1. Nc1cnc(-c2ccc(C3CCC3)c(OCc3ccc(F)c(F)c3)c2F)cn1
2. CC(C)c1ccnc(Oc2c(C3CCC3)ccc(-c3cnc(N)cn3)c2F)n1
3. Fc1c(-c2cnc3c(c2)OCCN3)ccc(C2CCC2)c1Oc1cccc(C(F)(F)F)n1
4. CS(=O)(=O)c1ccc(COc2c(C3CCC3)ccc(-c3cnc4c(c3)OCCN4)c2F)cc1
5. Nc1cnc(-c2ccc(C3CCC3)c(OCc3cc(F)ccc3Cl)c2F)cn1
6. CC(C)Cc1cc(Oc2c(C3CCC3)ccc(-c3cnc(N)cn3)c2F)nc(N)n1

Solution:
1: 3.15; 2: 1.73; 3: 2.23; 4: 3.06; 5: 2.86; 6: 1.48

Go through the list and state log10 of IC50 for each entry.
1. Nc1cnc(NCC(O)COc2c(C3CCC3)ccc(-c3cnc(N)cn3)c2F)nc1 (racemic)
2. Nc1cnc(-c2ccc(C3CCC3)c(O)c2F)cn1
3. Cc1cc(C)nc(Oc2c(C3CCC3)ccc(-c3cnc(N)cn3)c2F)n1
4. N#Cc1ccccc1COc1c(C2CCC2)ccc(-c2cnc(N)cn2)c1F

Solution:
[2.57, 2.98, 1.35, 3.07]

Exercise: Endpoint output: log10 of IC50 of N#Cc1ccc(Oc2c(C3CCC3)ccc(-c3cnc(N)cn3)c2F)cn1 . Value?
Solution: 3.12
